All values here come from patent US20080057063A1.

Below, each of the binders is paired with its reported Estimated IC50, n = 1 (HT29 adhesion to TGFβLAP) value.
- ASSAYED TARGET: human αVβ6 integrin on cells (human, UniProt P06756 31-1048; P18564 22-788)
- Sequence (P06756 31-1048, chain 1 of 2): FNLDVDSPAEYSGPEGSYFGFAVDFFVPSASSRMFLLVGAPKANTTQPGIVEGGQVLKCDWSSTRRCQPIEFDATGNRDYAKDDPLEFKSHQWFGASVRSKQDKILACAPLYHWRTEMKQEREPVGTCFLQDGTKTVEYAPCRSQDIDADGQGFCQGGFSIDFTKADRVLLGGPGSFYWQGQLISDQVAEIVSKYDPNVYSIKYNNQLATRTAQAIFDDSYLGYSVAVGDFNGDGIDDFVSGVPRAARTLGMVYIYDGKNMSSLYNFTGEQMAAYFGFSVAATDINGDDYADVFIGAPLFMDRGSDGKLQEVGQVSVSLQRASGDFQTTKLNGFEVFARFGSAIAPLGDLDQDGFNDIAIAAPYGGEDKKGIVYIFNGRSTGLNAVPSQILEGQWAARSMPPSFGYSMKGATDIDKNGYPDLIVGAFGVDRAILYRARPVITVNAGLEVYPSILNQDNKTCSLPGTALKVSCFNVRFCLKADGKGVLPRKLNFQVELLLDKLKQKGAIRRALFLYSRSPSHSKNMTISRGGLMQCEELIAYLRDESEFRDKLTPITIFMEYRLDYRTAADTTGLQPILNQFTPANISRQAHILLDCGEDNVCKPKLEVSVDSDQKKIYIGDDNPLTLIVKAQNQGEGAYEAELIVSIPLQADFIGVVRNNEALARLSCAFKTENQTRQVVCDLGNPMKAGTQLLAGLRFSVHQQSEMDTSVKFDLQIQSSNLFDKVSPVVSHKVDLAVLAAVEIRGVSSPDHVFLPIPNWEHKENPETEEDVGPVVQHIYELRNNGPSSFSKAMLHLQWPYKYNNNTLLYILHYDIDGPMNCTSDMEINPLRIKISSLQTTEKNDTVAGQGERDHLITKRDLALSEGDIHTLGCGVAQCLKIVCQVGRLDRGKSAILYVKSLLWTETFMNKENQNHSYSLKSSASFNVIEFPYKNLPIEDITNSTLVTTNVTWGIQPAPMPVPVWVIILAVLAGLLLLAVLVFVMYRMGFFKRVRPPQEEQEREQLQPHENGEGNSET
- Sequence (P18564 22-788, chain 2 of 2): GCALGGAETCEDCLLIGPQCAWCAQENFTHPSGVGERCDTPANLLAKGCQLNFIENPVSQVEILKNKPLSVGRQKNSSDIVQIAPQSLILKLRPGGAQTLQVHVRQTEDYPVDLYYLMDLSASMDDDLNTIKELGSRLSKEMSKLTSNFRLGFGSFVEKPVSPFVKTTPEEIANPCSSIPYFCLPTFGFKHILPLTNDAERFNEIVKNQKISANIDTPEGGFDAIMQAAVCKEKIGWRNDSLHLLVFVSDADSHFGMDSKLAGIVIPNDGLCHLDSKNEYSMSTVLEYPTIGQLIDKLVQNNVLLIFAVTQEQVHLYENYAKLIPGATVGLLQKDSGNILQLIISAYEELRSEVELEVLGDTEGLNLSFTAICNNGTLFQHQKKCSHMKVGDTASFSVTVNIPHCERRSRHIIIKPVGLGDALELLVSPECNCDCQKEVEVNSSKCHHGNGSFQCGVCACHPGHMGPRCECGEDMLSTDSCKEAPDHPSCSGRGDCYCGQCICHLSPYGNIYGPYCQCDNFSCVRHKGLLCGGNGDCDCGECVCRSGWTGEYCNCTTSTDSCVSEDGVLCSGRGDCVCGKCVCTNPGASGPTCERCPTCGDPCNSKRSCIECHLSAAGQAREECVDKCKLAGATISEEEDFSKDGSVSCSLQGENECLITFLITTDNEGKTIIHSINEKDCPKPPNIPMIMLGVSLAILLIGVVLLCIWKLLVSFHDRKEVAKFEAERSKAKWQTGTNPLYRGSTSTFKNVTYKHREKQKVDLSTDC
- ASSAY NAME: cell-based or functional assay
OBSERVATION TYPE: Estimated IC50, n = 1 (HT29 adhesion to TGFβLAP)

>  <BINDER>
sc 277 (antibody, V domains shown) VH: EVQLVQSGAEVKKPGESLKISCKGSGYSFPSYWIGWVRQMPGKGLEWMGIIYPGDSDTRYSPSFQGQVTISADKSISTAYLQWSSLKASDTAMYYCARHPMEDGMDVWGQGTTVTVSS VL: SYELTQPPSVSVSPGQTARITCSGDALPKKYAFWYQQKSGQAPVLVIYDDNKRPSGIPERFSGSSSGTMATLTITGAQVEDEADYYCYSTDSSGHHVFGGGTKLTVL

>  <RESULT>
1460 ng/mL

$$$$
>  <BINDER>
sc 298 (antibody, V domains shown) VH: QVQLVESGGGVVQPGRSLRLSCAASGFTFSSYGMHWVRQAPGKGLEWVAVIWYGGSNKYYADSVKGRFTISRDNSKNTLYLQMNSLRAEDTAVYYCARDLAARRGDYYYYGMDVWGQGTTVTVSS VL: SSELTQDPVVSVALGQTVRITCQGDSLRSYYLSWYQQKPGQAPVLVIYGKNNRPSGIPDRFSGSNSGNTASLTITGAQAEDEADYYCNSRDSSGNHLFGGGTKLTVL

>  <RESULT>
29 ng/mL

$$$$
>  <BINDER>
sc 188 (antibody, V domains shown) VH: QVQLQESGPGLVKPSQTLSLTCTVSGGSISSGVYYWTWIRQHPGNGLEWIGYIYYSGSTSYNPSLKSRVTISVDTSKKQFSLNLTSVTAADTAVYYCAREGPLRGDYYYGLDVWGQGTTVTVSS VL: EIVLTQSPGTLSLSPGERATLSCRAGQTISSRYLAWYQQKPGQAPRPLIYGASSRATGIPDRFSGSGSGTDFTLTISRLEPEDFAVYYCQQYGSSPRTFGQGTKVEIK

>  <RESULT>
41 ng/mL

$$$$
>  <BINDER>
sc 254 (antibody, V domains shown) VH: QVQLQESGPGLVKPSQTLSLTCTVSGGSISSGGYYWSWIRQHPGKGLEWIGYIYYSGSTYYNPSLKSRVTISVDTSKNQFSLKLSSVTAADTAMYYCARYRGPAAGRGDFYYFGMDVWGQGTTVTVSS VL: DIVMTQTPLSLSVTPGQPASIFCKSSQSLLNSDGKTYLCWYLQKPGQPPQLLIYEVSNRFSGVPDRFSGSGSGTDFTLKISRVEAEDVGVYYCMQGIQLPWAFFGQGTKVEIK

>  <RESULT>
63 ng/mL

$$$$
